# System: SARS-COV-2
# Procedure Text: microbe, parasite or virus in culture
# Format: cell-based
# Design: unit not given here
# Test Context: SARS-COV-2; values >50 assumed to be 50
Kind request: treat 10 as inclusive, so SI (Selectivity Index, CC50/IC50) at 10 or higher is 1.0, anything lower is 0.0.

For this molecule, is measured SI (Selectivity Index, CC50/IC50) 10 or higher? COc1cc2cc3c(c(-c4cc5c(cc4OP(=O)(NC(C)C)Oc4ccccc4)OCO5)c2cc1OC)C(=O)OC3 (stereo not shown)
0.0

Please indicate if the recorded SI (Selectivity Index, CC50/IC50) for COc1cc2cc3c(c(-c4ccc(N(C)CC(C)C)nc4)c2cc1OC)C(=O)OC3 meets or exceeds 10.
1.0

In plain terms: is recorded SI (Selectivity Index, CC50/IC50) at least 10 for COc1cc2cc3c(c(-c4ccc5cc(C(F)(F)F)cc(O)c5c4)c2cc1OC)C(=O)OC3 ?
0.0

Test whether the molecule COc1cc2cc3c(c(-c4ccc(N(C)C)cc4)c2cc1OC)C(=O)OC3.Cl records SI (Selectivity Index, CC50/IC50) of 10 or higher.
1.0

Entry COc1cc2cc3c(c(-c4cnc(Cl)c(N(C)C)c4)c2cc1OC)C(=O)OC3 : is its SI (Selectivity Index, CC50/IC50) no less than 10?
1.0

Say whether COc1cc2cc3c(c(-c4cnc(N5CCC[C@H]5C(=O)N5C[C@@H](C)O[C@@H](C)C5)nc4)c2cc1OC)C(=O)OC3 shows SI (Selectivity Index, CC50/IC50) of 10 or more.
0.0

Confirm if SI (Selectivity Index, CC50/IC50) reported for the molecule COc1cc2cc3c(c(-c4cnc(N[C@H]5CCc6c(cccc6OC)C5)nc4)c2cc1OC)C(=O)OC3 is 10 or above.
1.0
